Where these numbers come from: patent US20220387604A1

Target Or System: HDAC5 (Homo sapiens, UniProt Q9UQL6)
Construct: purchased Reaction Biology
Sequence (Q9UQL6 whole entry): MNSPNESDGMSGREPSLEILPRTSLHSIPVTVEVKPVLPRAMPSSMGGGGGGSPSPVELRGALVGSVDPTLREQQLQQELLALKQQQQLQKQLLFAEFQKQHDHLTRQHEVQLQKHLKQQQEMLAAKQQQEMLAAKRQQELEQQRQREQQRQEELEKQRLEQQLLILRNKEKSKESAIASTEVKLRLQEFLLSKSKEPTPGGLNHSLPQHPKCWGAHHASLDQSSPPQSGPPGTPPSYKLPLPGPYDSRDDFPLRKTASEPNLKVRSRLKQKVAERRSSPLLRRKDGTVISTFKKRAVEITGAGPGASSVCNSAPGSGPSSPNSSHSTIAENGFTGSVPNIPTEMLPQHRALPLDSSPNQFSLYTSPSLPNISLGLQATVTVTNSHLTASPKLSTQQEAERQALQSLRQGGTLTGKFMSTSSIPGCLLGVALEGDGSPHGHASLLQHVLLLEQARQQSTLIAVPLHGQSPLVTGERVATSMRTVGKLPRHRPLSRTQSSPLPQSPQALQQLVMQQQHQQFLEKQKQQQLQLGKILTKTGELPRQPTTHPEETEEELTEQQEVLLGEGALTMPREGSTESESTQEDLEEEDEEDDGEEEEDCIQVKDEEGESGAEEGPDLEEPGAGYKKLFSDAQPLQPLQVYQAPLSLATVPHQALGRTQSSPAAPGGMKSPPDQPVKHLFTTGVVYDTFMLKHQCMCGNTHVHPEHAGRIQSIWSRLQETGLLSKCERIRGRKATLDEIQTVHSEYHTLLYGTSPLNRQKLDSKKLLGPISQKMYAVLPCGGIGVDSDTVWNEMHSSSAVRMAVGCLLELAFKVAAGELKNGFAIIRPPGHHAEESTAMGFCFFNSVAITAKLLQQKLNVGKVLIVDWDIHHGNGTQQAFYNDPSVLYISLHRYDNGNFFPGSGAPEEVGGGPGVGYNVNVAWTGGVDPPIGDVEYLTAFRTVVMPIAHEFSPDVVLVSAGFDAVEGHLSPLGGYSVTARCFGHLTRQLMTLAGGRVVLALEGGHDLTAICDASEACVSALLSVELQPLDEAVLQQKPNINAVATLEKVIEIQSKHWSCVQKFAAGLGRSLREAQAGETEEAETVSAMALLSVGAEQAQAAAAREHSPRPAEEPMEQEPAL
Assay Text: HDAC enzymatic assay (Reaction Biology), HDAC5
Format: biochemical
Measurement Conditions: 10-dose response curve; read-out: Compound IC50 (M), HDAC5
Readout: IC50

Data request, read-out IC50, for O=C(/C=C/c1ccc(CN(CCOCCOCCNc2cccc3c2C(=O)N(C2CCC(=O)NC2=O)C3=O)CCc2c[nH]c3ccccc23)cc1)NO (stereo not shown) [Compound 1] > 2e-05 M
